# tested.system: recombinant PhnsLTP3
# procedure.text: TNS displacement assay with recombinant PhnsLTP3
# Assay type: binding, Petunia hybrida
# test.settings: PhnsLTP3 1 µM, TNS 3 µM; two-binding-site fit; means ± S.E., n = 3; read-out: dissociation constant Kd2 (PhnsLTP3, two-binding-site model)
# Protocol: To directly test whether PhnsLTP3 can bind petunia VOCs, in vitro displacement assays were performed using the recombinant PhnsLTP3 protein and fluorescent 6-(p-toluidino)−2-naphthalenesulfonate (TNS) in the presence of petunia volatiles. […] TNS fluoresces strongly when bound to the hydrophobic regions of the protein, while it has weak fluorescence in an aqueous solution. […]
value.type: Kd (nM)

molecule: COC(=O)c1ccccc1 [Methylbenzoate]
units.of.measure: nM
result: 2000

---

# tested.system: recombinant PhnsLTP2
# procedure.text: TNS displacement assay with recombinant PhnsLTP2
# test.settings: PhnsLTP2 1 µM, TNS 3 µM; non-linear fitting to Michaelis-Menten equation; means ± S.E., n = 3; read-out: dissociation constant Kd (PhnsLTP2)
pKd: −log10 of the molar value.
pKd of 4 or higher: yes (1). Under 4: no (0).

molecule: O=C(OCc1ccccc1)c1ccccc1 [Benzylbenzoate]
assigned.category: yes (1)

molecule: CC/C=C\CC1C(=O)CCC1CC(=O)OC (stereo not drawn) [Methyl jasmonate]
assigned.category: no (0)

molecule: C=CC(C)(O)CCC=C(C)CCC=C(C)C (mixture of isomers) [Nerolidol]
assigned.category: yes (1)

molecule: C=CC(C)(O)CCC=C(C)C (stereo not drawn) [Linalool]
assigned.category: no (0)

molecule: OCc1ccccc1 [Benzyl alcohol]
assigned.category: no (0)

molecule: O=Cc1ccccc1 [Benzaldehyde]
assigned.category: no (0)

molecule: COC(=O)c1ccccc1 [Methylbenzoate]
assigned.category: no (0)

---

Each item that follows carries a reported pKd.
# tested.system: recombinant PhnsLTP3
# procedure.text: TNS displacement assay with recombinant PhnsLTP3
# Format: binding, Petunia hybrida
# test.settings: PhnsLTP3 1 µM, TNS 3 µM; non-linear fitting to Michaelis-Menten equation (one binding site); means ± S.E., n = 3; read-out: dissociation constant Kd (PhnsLTP3)
# Procedure: To directly test whether PhnsLTP3 can bind petunia VOCs, in vitro displacement assays were performed using the recombinant PhnsLTP3 protein and fluorescent 6-(p-toluidino)−2-naphthalenesulfonate (TNS) in the presence of petunia volatiles. […] TNS fluoresces strongly when bound to the hydrophobic regions of the protein, while it has weak fluorescence in an aqueous solution. […]
pKd: −log10 of the molar value.
value.type: pKd

molecule: COC(=O)c1ccccc1 [Methylbenzoate]
tested.system: recombinant PhnsLTP3
value.type: pKd
result: 3.57
//
molecule: OCc1ccccc1
tested.system: recombinant PhnsLTP3
value.type: pKd
result: 3.68
//
molecule: O=Cc1ccccc1
tested.system: recombinant PhnsLTP3
value.type: pKd
result: 3.56
//
molecule: C=CC(C)(O)CCC=C(C)CCC=C(C)C (mixture of isomers)
tested.system: recombinant PhnsLTP3
value.type: pKd
result: 5.62
//
molecule: C=C(C)[C@H]1CC=C(C)CC1
tested.system: recombinant PhnsLTP3
value.type: pKd
result: 4.57
//
molecule: C=CC(C)(O)CCC=C(C)C (stereo not shown)
tested.system: recombinant PhnsLTP3
value.type: pKd
result: 3.52
//
molecule: O=C(OCc1ccccc1)c1ccccc1 [Benzylbenzoate]
tested.system: recombinant PhnsLTP3
value.type: pKd
result: 5.19
//
molecule: COc1cc(C=O)ccc1O
tested.system: recombinant PhnsLTP3
value.type: pKd
result: 4.58
//
molecule: CC/C=C\CC1C(=O)CCC1CC(=O)OC (stereo not shown) [Methyl jasmonate]
tested.system: recombinant PhnsLTP3
value.type: pKd
result: 3.60
//
molecule: OCCc1ccccc1
tested.system: recombinant PhnsLTP3
value.type: pKd
result: 3.40
